This listing pairs compounds with measured pIC50.
testSystem: acyl-CoA: cholesterol acyltransferase (ACAT) (Rattus norvegicus, UniProt Q7TQM4)
Sequence (Q7TQM4 whole entry): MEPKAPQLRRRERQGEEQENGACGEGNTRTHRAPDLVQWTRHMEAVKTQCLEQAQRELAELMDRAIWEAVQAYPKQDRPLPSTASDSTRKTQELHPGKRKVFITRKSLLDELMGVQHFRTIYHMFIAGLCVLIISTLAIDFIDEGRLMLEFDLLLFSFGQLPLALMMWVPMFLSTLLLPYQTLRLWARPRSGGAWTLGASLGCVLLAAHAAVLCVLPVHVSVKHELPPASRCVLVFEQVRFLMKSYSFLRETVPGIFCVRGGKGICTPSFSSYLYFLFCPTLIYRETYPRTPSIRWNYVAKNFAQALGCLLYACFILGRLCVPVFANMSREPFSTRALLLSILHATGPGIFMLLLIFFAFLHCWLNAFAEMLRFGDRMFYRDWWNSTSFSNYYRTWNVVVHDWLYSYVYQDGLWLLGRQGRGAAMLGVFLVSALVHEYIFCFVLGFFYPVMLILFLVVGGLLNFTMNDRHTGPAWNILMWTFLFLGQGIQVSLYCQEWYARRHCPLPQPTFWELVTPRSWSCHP
pIC50: −log10 of the molar value. Where a name gives a salt, the structure may show the parent alone.

{"compound": "CC(C)c1cc(C(C)C)c(CC(=O)NS(=O)(=O)Oc2c(C(C)C)cc(OCCCN(C)C)cc2C(C)C)c(C(C)C)c1 [Example 14]", "testSystem": "acyl-CoA: cholesterol acyltransferase (ACAT) (Rattus norvegicus, UniProt Q7TQM4)", "measValue": "< 4.30"}
{"compound": "CC(C)c1cc(C(C)C)c(CC(=O)NS(=O)(=O)Oc2c(C(C)C)cc(NC(=O)[C@H](C)N)cc2C(C)C)c(C(C)C)c1 [Example 12]", "testSystem": "acyl-CoA: cholesterol acyltransferase (ACAT) (Rattus norvegicus, UniProt Q7TQM4)", "measValue": "< 4.30"}
{"compound": "CC(C)c1cc(C(C)C)c(CC(=O)NS(=O)(=O)Oc2c(C(C)C)cc(OCCCN)cc2C(C)C)c(C(C)C)c1 [Example 16, hydrochloride salt]", "testSystem": "acyl-CoA: cholesterol acyltransferase (ACAT) (Rattus norvegicus, UniProt Q7TQM4)", "measValue": "< 4.30"}

Case CC(C)c1cc(C(C)C)c(CC(=O)NS(=O)(=O)Oc2c(C(C)C)cc(NC(=O)[C@@H](N)CCCCN)cc2C(C)C)c(C(C)C)c1 [Example 2, dihydrochloride] , acyl-CoA: cholesterol acyltransferase (ACAT) (Rattus norvegicus, UniProt Q7TQM4), pIC50 recorded as < 4.30

Case CC(C)c1cc(C(C)C)c(CC(=O)NS(=O)(=O)Oc2c(C(C)C)cc(C#N)cc2C(C)C)c(C(C)C)c1 [Example 18] , acyl-CoA: cholesterol acyltransferase (ACAT) (Rattus norvegicus, UniProt Q7TQM4), pIC50 recorded as < 4.30

Case CC(C)c1cc(C(C)C)c(CC(=O)NS(=O)(=O)Oc2c(C(C)C)cc(NCCO)cc2C(C)C)c(C(C)C)c1 [Example 27] , acyl-CoA: cholesterol acyltransferase (ACAT) (Rattus norvegicus, UniProt Q7TQM4), pIC50 recorded as 4.37

Case CCOC(=O)CCNC(=O)Nc1cc(C(C)C)c(OS(=O)(=O)NC(=O)Cc2c(C(C)C)cc(C(C)C)cc2C(C)C)c(C(C)C)c1 [Example 7] , acyl-CoA: cholesterol acyltransferase (ACAT) (Rattus norvegicus, UniProt Q7TQM4), pIC50 recorded as 4.31

Case CC(C)c1cc(C(C)C)c(CC(=O)NS(=O)(=O)Oc2c(C(C)C)cc(NC(=O)CN)cc2C(C)C)c(C(C)C)c1 [Example 4] , acyl-CoA: cholesterol acyltransferase (ACAT) (Rattus norvegicus, UniProt Q7TQM4), pIC50 recorded as 4.32

Case CC(C)c1cc(C(C)C)c(CC(=O)NS(=O)(=O)Oc2c(C(C)C)cc(NC(=O)[C@@H](C)N)cc2C(C)C)c(C(C)C)c1 [Example 11] , acyl-CoA: cholesterol acyltransferase (ACAT) (Rattus norvegicus, UniProt Q7TQM4), pIC50 recorded as < 4.30

Case CC(C)c1cc(C(C)C)c(CC(=O)NS(=O)(=O)Oc2c(C(C)C)cc(CNC(=O)CN)cc2C(C)C)c(C(C)C)c1 [Example 19] , acyl-CoA: cholesterol acyltransferase (ACAT) (Rattus norvegicus, UniProt Q7TQM4), pIC50 recorded as < 4.30
